settings: Liquid; Ebulliometric method (Recirculating still)
propertyLabel: Normal boiling temperature (°C)

molecule: CC(C)c1cccc(-c2ccccc2)c1 [3-(1-Methylethyl)-1,1'-biphenyl]
unitOfMeasurement: °C
reported: 293.39
--
molecule: CC(C)(C)c1ccc(-c2ccccc2)cc1 [4-(1,1-dimethylethyl)-1,1'-biphenyl]
unitOfMeasurement: °C
reported: 312.24
--
molecule: Cc1ccc(-c2ccccc2)cc1 [4-methylbiphenyl]
unitOfMeasurement: °C
reported: 274.4
--
molecule: CC(C)(C)c1cccc(-c2ccccc2)c1 [3-(1,1-dimethylethyl)-1,1'-biphenyl]
unitOfMeasurement: °C
reported: 301.34
